src = paper PMC12102759

B1: PAIP1 peptide 124-139 (Polyadenylate-binding protein-interacting protein 1), 16-mer library wild type / PABPC1 PABC (PABPC1 PABC domain, residues 544-623) (parent)
chain 1: LMSKLSVNAPEFYPSG
chain 2: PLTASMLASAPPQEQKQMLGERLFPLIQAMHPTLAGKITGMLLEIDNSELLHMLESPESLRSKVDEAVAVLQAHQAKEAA

Variants of: B1
Assay summary: proteomic peptide phage display deep mutational scan (ProP-PD DMS): M13 P8 16-mer library selected against immobilised GST-tagged bait for four days (rounds), NGS of the eluted pools per day and pseudo-replica
Measurement conditions: with PABPC1 PABC (PABPC1 PABC domain, residues 544-623); bait immobilised on MaxiSorp plates (10 µg), library pre-cleared on GST, 2 h binding at 4 °C, five washes; one round per day, days 1-4; value from days 2 and 3; keep out of graded; scale: average fractional NGS count over selection days 2 and 3
screen value for assorted variants
Readout kind: screen value

1. chain 1 S6Q | 4.7e-05
2. chain 1 N8H | 0.000197
3. chain 1 S6K | 0
4. chain 1 E11H | 0.000179
5. chain 1 N8Q | 0.000156
6. chain 1 V7L | 1.45e-05
7. chain 1 A9L | 0
8. chain 1 P14T | 8.32e-05
9. chain 1 Y13N | 3.07e-05
10. chain 1 P14N | 0
11. chain 1 K4W | 0.000136
